B1: 1ZHC (parent)
chain: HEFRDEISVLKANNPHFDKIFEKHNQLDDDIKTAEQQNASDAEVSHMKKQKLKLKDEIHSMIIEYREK

Variants of: B1
Assay Info: folding stability dG (cDNA display proteolysis); higher = more stable
Condition Info: PBS, room temperature
Lab note: class by folding stability dG, see group 1: < 0.2 kcal/mol; group 2: ≥ 0.2 kcal/mol and < 1 kcal/mol; group 3: ≥ 1 kcal/mol

Inquiry: Field: class (folding stability dG) — entry: D5Y
Reply text: group 3

Inquiry: Field: class (folding stability dG) — entry: S60H
Reply text: group 2

Inquiry: Field: class (folding stability dG) — entry: D29L
Reply text: group 3

Inquiry: Field: class (folding stability dG) — entry: D30W
Reply text: group 3

Inquiry: Field: class (folding stability dG) — entry: N25G
Reply text: group 1

Inquiry: Field: class (folding stability dG) — entry: L27W
Reply text: group 1

Inquiry: Field: class (folding stability dG) — entry: I31L
Reply text: group 1

Inquiry: Field: class (folding stability dG) — entry: Q50R
Reply text: group 2

Inquiry: Field: class (folding stability dG) — entry: L52C
Reply text: group 2

Inquiry: Field: class (folding stability dG) — entry: K23V
Reply text: group 1

Inquiry: Field: class (folding stability dG) — entry: E2A
Reply text: group 3

Inquiry: Field: class (folding stability dG) — entry: F3E
Reply text: group 2

Inquiry: Field: class (folding stability dG) — entry: H46N
Reply text: group 3

Inquiry: Field: class (folding stability dG) — entry: E67A
Reply text: group 3

Inquiry: Field: class (folding stability dG) — entry: E67Y
Reply text: group 2

Inquiry: Field: class (folding stability dG) — entry: K49M
Reply text: group 3

Inquiry: Field: class (folding stability dG) — entry: D28Y
Reply text: group 2

Inquiry: Field: class (folding stability dG) — entry: F21H
Reply text: group 1

Inquiry: Field: class (folding stability dG) — entry: H46P
Reply text: group 1

Inquiry: Field: class (folding stability dG) — entry: D30G
Reply text: group 1

Inquiry: Field: class (folding stability dG) — entry: N14L
Reply text: group 1

Inquiry: Field: class (folding stability dG) — entry: K49G
Reply text: group 2

Inquiry: Field: class (folding stability dG) — entry: N14S
Reply text: group 2

Inquiry: Field: class (folding stability dG) — entry: I31H
Reply text: group 1

Inquiry: Field: class (folding stability dG) — entry: Q26S
Reply text: group 2

Inquiry: Field: class (folding stability dG) — entry: K19G
Reply text: group 1

Inquiry: Field: class (folding stability dG) — entry: I58H
Reply text: group 1

Inquiry: Field: class (folding stability dG) — entry: L10V
Reply text: group 1

Inquiry: Field: class (folding stability dG) — entry: V44K
Reply text: group 1

Inquiry: Field: class (folding stability dG) — entry: Q37G
Reply text: group 2

Inquiry: Field: class (folding stability dG) — entry: D29A
Reply text: group 3

Inquiry: Field: class (folding stability dG) — entry: A34I
Reply text: group 1

Inquiry: Field: class (folding stability dG) — entry: T33R
Reply text: group 3

Inquiry: Field: class (folding stability dG) — entry: T33H
Reply text: group 2

Inquiry: Field: class (folding stability dG) — entry: D18G
Reply text: group 3

Inquiry: Field: class (folding stability dG) — entry: N13I
Reply text: group 3

Inquiry: Field: class (folding stability dG) — entry: L27V
Reply text: group 2

Inquiry: Field: class (folding stability dG) — entry: K51Y
Reply text: group 3

Inquiry: Field: class (folding stability dG) — entry: H1L
Reply text: group 3

Inquiry: Field: class (folding stability dG) — entry: M47Y
Reply text: group 1

Inquiry: Field: class (folding stability dG) — entry: D18A
Reply text: group 3
